Origin of the recorded values: ChEMBL document CHEMBL1130517

- TESTED_SYSTEM: Endothelin-1 receptor (Rattus norvegicus, UniProt P26684)
- Sequence (P26684 whole entry): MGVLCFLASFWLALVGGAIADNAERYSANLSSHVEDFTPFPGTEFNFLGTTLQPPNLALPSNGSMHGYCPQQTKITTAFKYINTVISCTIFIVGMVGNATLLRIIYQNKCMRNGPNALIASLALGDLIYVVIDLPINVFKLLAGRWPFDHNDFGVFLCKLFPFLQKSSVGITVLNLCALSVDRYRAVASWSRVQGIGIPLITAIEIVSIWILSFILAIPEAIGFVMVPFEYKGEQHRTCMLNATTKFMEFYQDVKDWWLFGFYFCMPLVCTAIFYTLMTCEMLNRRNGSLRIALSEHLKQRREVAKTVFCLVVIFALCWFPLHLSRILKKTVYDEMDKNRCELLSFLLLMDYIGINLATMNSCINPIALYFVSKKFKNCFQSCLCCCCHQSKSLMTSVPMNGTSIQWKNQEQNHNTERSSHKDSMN
- PROTOCOL_SUMMARY: Evaluation for functional inhibitory potency prevention of ET-1 induced constriction of rat aortic rings (ETA receptors)
- RECORDED_CONDITIONS: read-out: pA2 (converted)
MEASURED_ATTRIBUTE: Kb (nM)

Some solved entries appear below for comparison.
SMILES_REPRESENTATION: COc1ccccc1Oc1c(NS(=O)(=O)c2ccc(C(C)(C)C)cc2)nc(C(C)(C)C)nc1OCCOC(=O)Nc1ccccn1
Kb / nM: 25.1
--
SMILES_REPRESENTATION: COc1ccccc1Oc1c(NS(=O)(=O)c2ccc(C)cn2)nc(-c2ncccn2)nc1OCCOC(=O)Nc1ccccn1
Kb / nM: 1
--
SMILES_REPRESENTATION: COc1ccccc1Oc1c(NS(=O)(=O)c2ccc(C(C)C)cn2)nc(N2CCSCC2)nc1OCCOC(=O)Nc1ccccn1
Kb / nM: 1.58
--
SMILES_REPRESENTATION: COc1ccccc1Oc1c(NS(=O)(=O)c2ccc(C(C)C)cn2)nc(-c2ncccn2)nc1OCCOC(=O)Nc1ccccn1
Kb / nM: 0.1
--
SMILES_REPRESENTATION: COc1ccccc1Oc1c(NS(=O)(=O)c2ccc(C(C)(C)C)cc2)nc(-c2ncccn2)nc1OCCOC(=O)Nc1ccccn1
Kb / nM: 1
--
SMILES_REPRESENTATION: COc1ccccc1Oc1c(NS(=O)(=O)c2ccc(C(C)(C)C)cc2)nc(C(C)C)nc1OCCOC(=O)Nc1ccccn1
Kb / nM: 15.8
--
SMILES_REPRESENTATION: COc1ccccc1Oc1c(NS(=O)(=O)c2ccc(C(C)(C)C)cc2)nc(-c2cccs2)nc1OCCOC(=O)Nc1ccccn1
Kb / nM: 10
--
SMILES_REPRESENTATION: COc1ccccc1Oc1c(NS(=O)(=O)c2ccc(C(C)(C)C)cc2)nc(N2CCOCC2)nc1OCCOC(=O)Nc1ccccn1
Kb / nM: 10

1. COc1ccccc1Oc1c(NS(=O)(=O)c2ccc(C(C)C)cn2)nc(N2CCCCC2)nc1OCCOC(=O)Nc1ccccn1
2. COc1ccccc1Oc1c(NS(=O)(=O)c2ccc(C)cn2)nc(N2CCOCC2)nc1OCCOC(=O)Nc1ccccn1
Could you please tell me which of these two has the higher Kb: 1 or 2 ? Answer by stating the label of the chosen item.
1

P. CCCc1nc(NS(=O)(=O)c2ccc(C(C)(C)C)cc2)c(Oc2ccccc2OC)c(OCCOC(=O)Nc2ccccn2)n1
Q. COc1ccccc1Oc1c(NS(=O)(=O)c2ccc(C(C)(C)C)cc2)nc(C2CC2)nc1OCCOC(=O)Nc1ccccn1
Response body: label of entry with the larger Kb; valid values P , Q . Return value: the label identifying the chosen record.
Q
(Q: 20 nM, P: 12.6 nM)
